Hey, just so you know, these numbers are from the supplement of paper PMC6555819.

Tested on: PPARg DBDmut:RXRa IVT, anti-PPARg (DBD mutation: PPARg1 K132A/R137A, NR concentration 270 nM, RXRa partner concentration 90 nM)
Assay: PBM binding z-score (relative to random genomic background probes); higher = stronger binding; sequences stand for … in GC…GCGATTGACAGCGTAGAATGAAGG
Readout name: PBM binding z-score
// no unit string in output, number only

Endpoint output: PBM binding z-score of CCTATTAGTTGACCATAAGGGAAACCGAAGCTCG . Value?
0.925

Endpoint output: PBM binding z-score of CCTAGTTGGCCAGGAGGTCACACACCGGATATGA . Value?
0.522

Endpoint output: PBM binding z-score of TCGAGTAAGTTAGGGGCATTCAGAATGGCGTCGA . Value?
-1.43

Endpoint output: PBM binding z-score of ACTATTAGTTGACTTAGGGCGACCGATACGACGC . Value?
1.73

Endpoint output: PBM binding z-score of AGTCAAACTTCACTAGGTAACGTAAGATTCAGCT . Value?
0.854

Endpoint output: PBM binding z-score of CTACCAAGGTGAACAAGGTCGTTGACTACTATTC . Value?
0.603

Endpoint output: PBM binding z-score of TCTTGTAGATCAACAGGAGGTTAAGAGAGATCGA . Value?
0.135

Endpoint output: PBM binding z-score of CCTTCCGGGTCAAGGTTATAGCACGGGTGGTACG . Value?
0.688

Endpoint output: PBM binding z-score of CCTATTAGTTGACCATAAGGCCAACCGAAGCTCG . Value?
0.478

Endpoint output: PBM binding z-score of TCAGACAGGTGAAGGTTACTCAGGTACGCAGTCG . Value?
0.0117

Endpoint output: PBM binding z-score of CGAACTTGGTCATTGACAGGACAGTGAATAGTAA . Value?
0.111

Endpoint output: PBM binding z-score of CCTACTGGGCCACGAAAGATCATTGATTCAGTGA . Value?
0.632

Endpoint output: PBM binding z-score of GGAACGAGGGCAAATTGATAGCAGAGTTTGATGG . Value?
0.618

Endpoint output: PBM binding z-score of CATTACGGGTCACTGACAGGTTATAGCATTTGGA . Value?
2.13

Endpoint output: PBM binding z-score of GCTGCTAGGTCAGGTTGGTCAGCCAACGGGTACG . Value?
-1.3

Endpoint output: PBM binding z-score of TCTTGTAGACCAAGCAGGTTAAGAAAGCCTGAGT . Value?
-0.0357

Endpoint output: PBM binding z-score of ATATGTAGGTTACATCCGGGTCATTTAGGCTATG . Value?
4.18

Endpoint output: PBM binding z-score of CTCGAAAGGTCGTGCTCAGGTGATTATACCAAAC . Value?
1.57

Endpoint output: PBM binding z-score of CATACTGGGCCATCAGGTCATTGATATCAACGTT . Value?
0.816

Endpoint output: PBM binding z-score of ATATGTAGGTTATATCCGGGTCATTCAGGCTATG . Value?
5.13

Endpoint output: PBM binding z-score of CCTCGGAGGATAACAGGAGGTCAGAGCTGCCAGA . Value?
-0.938

Endpoint output: PBM binding z-score of ACAGACAGGTGAGTGAATGTAACTCAGCTGGACG . Value?
-0.206

Endpoint output: PBM binding z-score of CCTACTCGGCCATCAGGTCATTGATATCAACGTT . Value?
0.141

Endpoint output: PBM binding z-score of CCTCGGAAGACAACAGGAGGTCAGAGCTGCCAGA . Value?
-0.399

Endpoint output: PBM binding z-score of AATACAGGGTCATCGTAGGCCAGAGTTCGCACAG . Value?
1.89

Endpoint output: PBM binding z-score of AGAACGAGGGCAATGAGTTGATAGCACGGGTGGC . Value?
0.306

Endpoint output: PBM binding z-score of CCTACTGGGCCAAAAAGGTCATTTATGCCGATAA . Value?
0.881

Endpoint output: PBM binding z-score of CTCGAAAGGTCGTGCTCAGGTGAGGATACCAAAC . Value?
-0.368

Endpoint output: PBM binding z-score of ACTTACGGGTCAACGAGGTTATACCACGCGTATA . Value?
1.8

Endpoint output: PBM binding z-score of GCTGCTAGGTCAGGTTGGTCAGCTACCGGGTACG . Value?
-0.857

Endpoint output: PBM binding z-score of GCAGACAGGTGAAGCGCAGGTAACTCAGGGTGGC . Value?
-0.748

Endpoint output: PBM binding z-score of ATCGAAAGGTCGAGGTGAGTATAGAGAAAGGGAA . Value?
0.636

Endpoint output: PBM binding z-score of TTACCAAGGTGAAGGTCGTCGATCCCTCTGTAGA . Value?
0.0568

Endpoint output: PBM binding z-score of TCATATAGGTAAATGCTAGGTGAAGGTCCGATCT . Value?
1.1

Endpoint output: PBM binding z-score of CGTCGAAGGTCAGCAGGTCAGTGAAAGCGACGTG . Value?
-0.047

Endpoint output: PBM binding z-score of CTACCAAGGGGAACAAGGTCGTTGATTACTATTC . Value?
-0.93

Endpoint output: PBM binding z-score of AGAACGAGGGCAATGAGTTGATCGCACGGGTGGC . Value?
0.67

Endpoint output: PBM binding z-score of CTTACTGGGCCAAAAAGGTCATTGATGCCGATAA . Value?
2.51

Endpoint output: PBM binding z-score of CCTACTGGGCCAAGTTCATTGATCAGTCAAAGCA . Value?
0.0503

Endpoint output: PBM binding z-score of TTACCAAGGTTAGCTGAGGTCGTTGATCCAACTC . Value?
-0.413

Endpoint output: PBM binding z-score of GATACAGGGTCAGCTAGAGGCCAGAGTATGGAAA . Value?
0.139

Endpoint output: PBM binding z-score of ACTAGCGGGCCAAGTTTGGGTCACTCAAACAAAG . Value?
-0.878

Endpoint output: PBM binding z-score of CTCGAAAGGTCGGTTGTGGTGAGTATACGGATAA . Value?
-0.0487

Endpoint output: PBM binding z-score of ATCGAAAGGTCGACGAAGTGAGTATACACCGTTT . Value?
1.34

Endpoint output: PBM binding z-score of CAAACTAGGTCACGAAAGGTCAGAGTCGAATGAC . Value?
3.21
